Measured values drawn from paper PMC9482650 for this set.

Molecular target: T1, DLG3_1, Q92796
T1 sequence (Q92796 125-227, limits assumed, looked up): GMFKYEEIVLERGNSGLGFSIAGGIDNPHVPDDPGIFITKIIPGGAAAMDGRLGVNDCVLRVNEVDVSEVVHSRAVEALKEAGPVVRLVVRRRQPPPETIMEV
Test: holdup assay
Set-up: key: below the threshold = too weak to quantify, mostly under pKd 3.1 to 4
Settings: plain residues with an end cap or a label only (N-terminal biotin on a linker: ahx)

binder | pKd
KDECVIATEV [DLL1, O00548] | below the threshold
YNSFLSVTTV [PDZRN3, Q9UPQ7] | below the threshold
SKKNELFSNL [NHERF1, O14745] | below the threshold
